These entries and their values trace back to patent US20260242478A1.

targetEntity: Anti-CD28 Fab (SEQ ID NOs: 696, 697)
Sequence (VH, as listed by the source, chain 1 of 2): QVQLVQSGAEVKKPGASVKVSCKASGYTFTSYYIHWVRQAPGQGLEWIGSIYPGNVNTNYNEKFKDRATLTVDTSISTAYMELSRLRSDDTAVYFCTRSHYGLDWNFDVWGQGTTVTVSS
Sequence (VL, as listed by the source, chain 2 of 2): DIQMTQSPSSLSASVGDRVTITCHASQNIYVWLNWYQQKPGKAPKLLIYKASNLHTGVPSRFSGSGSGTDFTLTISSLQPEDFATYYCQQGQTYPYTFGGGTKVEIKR
measurementNotes: phage binding ELISA on captured anti-CD28 Fab pre-incubated with CD28 antigen as competitor
Where no end group is shown, it is not given here.
Catalogue of Anti-CD28 Fab signal in the presence of CD28 (phage binding ELISA) readings, one per entry.
Write the number on its own, no unit after it.

Example entries begin here.
binder="YCEGHLPQYMQKCL (peptide, not shown: large carriers, cysteine pairing not given here; also: displayed on phage as fusion to pIII, linker, pIII sequence and order not given here, Clonal phage supernatant of the Peptide-87 optimisation library) [Phage-512]" assayresult=0.12
binder="YCDGHLPEYMNKCL (peptide, not shown: large carriers, Clonal phage supernatant of the Peptide-87 optimisation library) [Phage-505]" assayresult=0.13

YCDGHSPEYMWKCL (peptide, not shown: large carriers, Clonal phage supernatant of the Peptide-87 optimisation library) [Phage-502] has a reported Anti-CD28 Fab signal in the presence of CD28 (phage binding ELISA) of 0.09

YCEGHLPEYMAKCL (peptide, not shown: large carriers, cysteine pairing not given here; also: displayed on phage as fusion to pIII, linker, pIII sequence and order not given here, Clonal phage supernatant of the Peptide-87 optimisation library) [Phage-509] has a reported Anti-CD28 Fab signal in the presence of CD28 (phage binding ELISA) of 0.14

YCAGHLPQYMAKCL (peptide, not shown: large carriers, Clonal phage supernatant of the Peptide-87 optimisation library) [Phage-508] has a reported Anti-CD28 Fab signal in the presence of CD28 (phage binding ELISA) of 0.17

YCDGHSAEHMAKCL (peptide, not shown: large carriers, Clonal phage supernatant of the Peptide-87 optimisation library) [Phage-507] has a reported Anti-CD28 Fab signal in the presence of CD28 (phage binding ELISA) of 0.08

YCDGHLPQYMEKCL (peptide, not shown: large carriers, Clonal phage supernatant of the Peptide-87 optimisation library) [Phage-500] has a reported Anti-CD28 Fab signal in the presence of CD28 (phage binding ELISA) of 0.11

YCDGHLPQYMAQCL (peptide, not shown: large carriers, cysteine pairing not given here; also: displayed on phage as fusion to pIII, linker, pIII sequence and order not given here, Clonal phage supernatant of the Peptide-87 optimisation library) [Phage-511] has a reported Anti-CD28 Fab signal in the presence of CD28 (phage binding ELISA) of 0.2

YCEGHLPQYMWKCL (peptide, not shown: large carriers, Clonal phage supernatant of the Peptide-87 optimisation library) [Phage-504] has a reported Anti-CD28 Fab signal in the presence of CD28 (phage binding ELISA) of 0.17

YCAGHLPEYMDKCL (peptide, not shown: large carriers, Clonal phage supernatant of the Peptide-87 optimisation library) [Phage-506] has a reported Anti-CD28 Fab signal in the presence of CD28 (phage binding ELISA) of 0.12

YCEGHLPEYMFKCL (peptide, not shown: large carriers, cysteine pairing not given here; also: displayed on phage as fusion to pIII, linker, pIII sequence and order not given here, Clonal phage supernatant of the Peptide-87 optimisation library) [Phage-510] has a reported Anti-CD28 Fab signal in the presence of CD28 (phage binding ELISA) of 0.12

YCDGHLPEYMEKCL (peptide, not shown: large carriers, Clonal phage supernatant of the Peptide-87 optimisation library) [Phage-503] has a reported Anti-CD28 Fab signal in the presence of CD28 (phage binding ELISA) of 0.1

YCAGHAPEYMEKCL (peptide, not shown: large carriers, Clonal phage supernatant of the Peptide-87 optimisation library) [Phage-501] has a reported Anti-CD28 Fab signal in the presence of CD28 (phage binding ELISA) of 0.09
